assay: folding stability dG unfold from trypsin proteolysis; higher = more stable
TEST READOUT: folding stability dG unfold (kcal/mol)
Lab book: enter the figure in kcal/mol, no units written.

Query: Name the reported folding stability dG unfold value associated with the sequence SAGGSAGGPMSAEELARFLANEFHKKHGMPPGHRVKIPVKWRDPEDGNEQEVTIEIPIRMPKGDSAGGSAGG [r6_799_TrROS]
Response: 0.32

Query: Any idea what its folding stability dG unfold is? The sequence is SAGGVLTRVEIEIVEPGTGVPKRFEALLETGDDGTITLLLPDGTVIELPPTANIKILSEEVLSPSELSAGGS [r16_223_JUSTAS]
Response: 2.02

Query: // query folding stability dG unfold value for entry SSMTLVTVEMEITLRTPEGGSETLKRTFEREVSPDDPAAVEAAVEAAKEEIREAHPDVVEVRVVKVDTALSA [r9_436_JUSTAS]
Response: 4.06

Query: So what does the record say about folding stability dG unfold for SAGGSAPPNIEREEYEFYLRNPDGKELGPAKIEVIRDPGDPDRPILTIEWPNGEPMLFDADDIEPLSAGGSA [r15_954_TrROS] ?
Response: 0.18

Query: Quick one: folding stability dG unfold for SAGGMVLVEPSPDAVVRVIEREGDLARVTVYDPRSGARTVELVPIAPTGKGGVRLETLEVRVLPDAEASAGG [r13_556_JUSTAS] ?
Response: -0.136

Query: Can you share its folding stability dG unfold? I mean this sequence: SAGGSAGGNGPPDIKIKIEILEVHPGHRDPDGKYYFRVRVEIEYPNKPVKVDFPMPADDAKDLISAGGSAGG [r6_724_TrROS]
Response: 2.93

Query: For the sequence shown here, SAVELPPDASITAVTVDPSGSRTVEVEVKTTTAYVYDPATGTTTTVPPGVRTVVTLPADVPVTVSFTSPSAG [r14_385_JUSTAS] , give the reported folding stability dG unfold.
Response: 0.252

Query: Which folding stability dG unfold reading was recorded for the sequence SAGGSAGGSAKPTFDNVENLSLEELAKKIAKEAAEKYPDAKNVEVEFRLPNGKSYRIVVDVDSAGGSAGGSA [r18_449_TrMRF] ?
Response: 1.21

Query: Fill blank: measured folding stability dG unfold of the sequence SAGGSAMTAEELARKLFPGAEVEVEVRLERNEDGSLSLRVEVRVRAAPPPEEEEVEEPEEVEEEEESAGGSA [r15_417_TrROS_Hall] is ____.
Response: 2.78

Query: Could you share which folding stability dG unfold value was measured for SAGGSAGGSAGGKIYKKKNGTYKIIIYDKKTKKVYEIEIPVSKEDKPKILKEAKELAKKSAGGSAGGSAGGS [r10_379_TrROS_Hall] ?
Response: 0.609

Query: Given the sequence SKIKIEEVPEGEEVEIEIPETKKTITIVKKDDYLIIKVKDKKTGEEKEIVIKVPPENIEEVLKKIEELLKSA [r9_982_TrROS_Hall] , what is its reported folding stability dG unfold?
Response: 2.01

Query: Fill in: folding stability dG unfold of SAGGSAGGSAGSIVTIPIAGLSPEEAEALIKEAIAAGEDKPIILVDEDGTPTVVPASELKSAGGSAGGSAGG [r11_541_JUSTAS] is ___
Response: -0.189

Query: Name the recorded folding stability dG unfold for SAGPITITYDEETGTLTITATVAPGEEVTFKLTFVDEETGVVVTEVEETVTVKEGDTVTITVKVEKLPPSAG [r5_737_TrROS_Hall] .
Response: 2.19

Query: Dear colleague, I am looking for the recorded folding stability dG unfold of the following sequence: SAGGSAGGSAGMRLLTVEYFDENGNPLSVEEIELYIERPPPPFLELEIDPRTGEPRFTGLSAGGSAGGSAGG [r17_348_JUSTAS]
Response: 1.01

* * *

test: folding stability dG unfold from chymotrypsin proteolysis; higher = more stable
Answer each item with its documented folding stability dG unfold.
Number only, in kcal/mol; omit the unit.

Query: Quick one: folding stability dG unfold for SAGGSAELPSLGAEITVTEDPNRNTYTVTVPLVAPDGAPVGTLTVPFSSLEEARAFLRAQGLGELLSAGGSA [r15_127_JUSTAS] ?
Response: 2.84

Query: Form field: reported folding stability dG unfold of SAGGSAGGSAGGEKPKYIIIPATLTVPVLTKEGEGEKVEYKEITLLLIINPDTNEITVSSAGGSAGGSAGGS [r10_533_TrMRF]
Response: 3.07

Query: Entry SMYTTVTVEVDITLADKTPDGTWTPVGTFPIKVTVTVPESRPEEAREEALARARAEVEAFAASRGLTVVVSA [r9_356_JUSTAS] has what folding stability dG unfold?
Response: 2.21

Query: Entry under review: SAGGSAGGSAGPRRFMFQIPADEVKLEFPGGAKVTDVEEDPDGYRRVMIEIPPGADPELKSAGGSAGGSAGG [r17_48_TrROS] . Reported folding stability dG unfold?
Response: 0.142

Query: Name the reported folding stability dG unfold value associated with the sequence SAGGAKIKFDIEPTNNTIRVKIEIWLPGGPVEIVEEEPVRVDPNGGIWISFRIRYPDGKPQEFQIPISAGGS [r8_449_TrROS]
Response: 3.08

Query: Could you share which folding stability dG unfold value was measured for SAGGSAKVIRVKSLEEALKLAEEAKKAGLEVEIKLLPDGSVLITVKPKPKPKVKKVEKKVKLPEGKSAGGSA [r15_761_TrROS_Hall] ?
Response: 1.96

Query: Request the reported folding stability dG unfold associated with SAMKIIIKLPKNVKPIKAEELEKIPGIKVVKIEIYKGEDGVYYLLIEIEESIPPEKLKELEEKIREIAGSAG [r14_421_TrMRF]
Response: 5.41

Query: Consider the sequence SAGGSAGGSAGGMVETGTPSSGSSSPSYVLTTTTLTLLDGTFVPTTTTTTFSDPAEAAAASAGGSAGGSAGG [r7_896_JUSTAS] and give its measured folding stability dG unfold.
Response: 0.411

Query: Name the reported folding stability dG unfold value associated with the sequence SAGGSPISLEVSTSTLPDGTLRVTTTATSPDSSRSYTVTLDFPPSQPEEIPARAAAEAAAIAADPAVASAGG [r13_968_JUSTAS]
Response: 1.35

Query: # lookup: folding stability dG unfold of SAGGSLFEKLNVKSVEVTEVKTYTLPPLPLTVEVPTVKVTLPDGTVIEFTVIKTYDPEDPTPTVTLGSAGGS [r8_422_JUSTAS]
Response: 1.31

Query: Please look up its folding stability dG unfold: SAGGSAMKIEEEEVEVPLSDEELEALKKNPGKTVKVKVIKIEIEMPEEEKKRLAKELEEKFNIKIESAGGSA [r15_347_TrROS_Hall]
Response: 0.0343

Query: Quick one: folding stability dG unfold for SAGGSAGGSAMLTKITITFEKPGTDETFTKPIDVPPDNPEEAIKAIKEELKKKGYKVKSVILSAGGSAGGSA [r18_3_JUSTAS] ?
Response: 1.73

Query: Value lookup for folding stability dG unfold; key = SAGGSAGGSAGGSTVTVTSEEEAQEAREALAAERAAAEPGAEPPEAFPVEVEVVPPELRSAGGSAGGSAGGS [r4_498_JUSTAS]
Response: 0.633

Query: Endpoint output: folding stability dG unfold of SAMSEKDMEPIETFELPETNVKIELYYNKKTKKYVIKIKNKKTKKTKTIVIKSKDGKITLEELKKLIKKSAG [r14_948_TrROS_Hall] . Value?
Response: 3.42

* * *

assay: folding stability dG unfold from chymotrypsin proteolysis; higher = more stable
TEST READOUT: folding stability dG unfold
Your reply should be a number followed by the unit it is expressed in.

Query: Given the sequence SGMDVFVASDPGPSYLRAEARLPGGESRVLTSGPPEEARALVERLAAEEDPAMAVRRVEEVPPGELPPELSA [r9_137_JUSTAS] , what is its reported folding stability dG unfold?
Response: -0.38 kcal/mol

Query: Which measured folding stability dG unfold value corresponds to SLTPEQVEKIAKTIADVFRKLGYELKVKTKVFEVNNVPVAVVEFELIDKDGKPRRFRFVIHPDGTIEIFPSA [r9_1027_TrMRF] ?
Response: 6.18 kcal/mol

Query: Suppose we examine the sequence SAGMVIPREEALANYSEEEIKELAKKIAEELGYKPKKIEIKKDPSPNSSITVTITPPDGSTIPLVLELPSAG [r5_745_JUSTAS] ; what folding stability dG unfold value has been reported?
Response: 1.08 kcal/mol

Query: Name the recorded folding stability dG unfold for SAGMMTVEELKEKLKEAAEKAGVKVKEIKITGPDGKEITVEVDLSEEQLKKLAEELGLEIDEVEVREPSAGG [r19_50_TrROS_Hall] .
Response: 1.75 kcal/mol

Query: Give its folding stability dG unfold value. Item: SAGGSAGGMPVEVTETPVGTFPDGSTVTRTETVLPGGEVLVETTVTYPDGSSTTTTRRVPPELASAGGSAGG [r6_263_JUSTAS]
Response: 2.41 kcal/mol

Query: What value of folding stability dG unfold has been recorded for this entry: SAGGSAGGSDNVKIEWEYNPENGVYTHEVYYDDGRPVTIIINPAEGPIWVFDPPDGKPIAPIPSAGGSAGGS [r12_657_TrROS]
Response: 0.833 kcal/mol

Query: Quick check: folding stability dG unfold of SAGGSAGGMPAEWLDEIEAPPGNYRAELYKTEKEVRIIITLPNGEKLELTFEVKPDEEILVLPGSAGGSAGG [r6_379_TrMRF] ?
Response: 2.12 kcal/mol

Query: What measured folding stability dG unfold goes with SAGGSAGGSAGSKTIEVVIPVKPNELTPEQAENLIKPFFPDAKIEVTPEGNYLVVKVEVSSAGGSAGGSAGG [r11_7_TrMRF] ?
Response: 0.334 kcal/mol

Query: Which folding stability dG unfold value is on record for SAGGSAGGSMHEDEQLPYEAAEKYTILKLKEENEKLNLPPIPIKKIEIEKDPETGLVRVKVYGSAGGSAGGS [r12_583_TrMRF] ?
Response: -0.579 kcal/mol

Query: Fill blank: measured folding stability dG unfold of the sequence SAGGLYKKDPDGQYVKPVPKVPPIPIEIKFPNGVEVKIEIYPYSNHITIEYTGPNPELANELIQEIIQSAGG [r13_701_TrROS] is ____.
Response: 0.624 kcal/mol

Query: Entry SAGGSAGGSKTIVITIEPNVKTPEQLLELLKKIRELSKPGEKIVIIASPEVLEALKKAGLIEESAGGSAGGS [r12_992_TrROS_Hall] has what folding stability dG unfold?
Response: 3.7 kcal/mol

Query: Look up folding stability dG unfold: SAGGSAGGSAGMTIEELKAKGYKVEVVKLPDSPEEVVVVTYPVPPGGIEKSVIPLSEVKLSAGGSAGGSAGG [r17_311_JUSTAS]
Response: 0.601 kcal/mol

Query: Look at this sequence and give its reported folding stability dG unfold. DRIEIDVEMYDGYFYKIEIRWPGNGEPRELMFPGSLSEAKDFAEDLIQEQHPGAPVDEIDVEPVPMPPGDFS [r1_80_TrROS]
Response: 2.01 kcal/mol

Query: // lookup folding stability dG unfold for SAGGEEKVITKEETITVPPDAGTITISSNEVIKDPNSSYTYYVKESKTVSRDPNSNVYTITLKIKVEKSAGG [r13_574_JUSTAS]
Response: 0.917 kcal/mol
